Field: Relative initial rate of hydrolysis (percentage of that obtained with pNPαAF). Provide a value for each of the molecules that follow.
Tested on: purified α-L-AFase
ASSAY_METHOD_TEXT: Substrate specificity and kinetic analysis with aryl-glycosides
Type: biochemical, Aureobasidium pullulans
PARTICULARS: substrate 4 mM, enzyme 28 mU/ml, pH 4.5 and 75° C., 15 min reaction
I only need the number, in %, no unit after it.

Req: # input molecule: O=[N+]([O-])c1ccc(O[C@@H]2O[C@H](CO)[C@H](O)[C@H](O)[C@H]2O)cc1 [p-nitrophenyl-β-D-galactoside] ; wanted: its Relative initial rate of hydrolysis (percentage of that obtained with pNPαAF)
Resp: 0.1

Req: # input molecule: O=[N+]([O-])c1ccc(O[C@@H]2O[C@H](CO)[C@@H](O[C@@H]3O[C@H](CO)[C@@H](O)[C@H](O)[C@H]3O)[C@H](O)[C@H]2O)cc1 [p-nitrophenyl-β-D-cellobioside] ; wanted: its Relative initial rate of hydrolysis (percentage of that obtained with pNPαAF)
Resp: 0.0

Req: # input molecule: O=[N+]([O-])c1ccc(O[C@@H]2OC[C@@H](O)[C@H](O)[C@H]2O)cc1 [p-nitrophenyl-β-D-xyloside] ; wanted: its Relative initial rate of hydrolysis (percentage of that obtained with pNPαAF)
Resp: 3.1

Req: # input molecule: O=[N+]([O-])c1ccc(O[C@@H]2OC[C@H](O)[C@H](O)[C@H]2O)cc1 [p-nitrophenyl-α-L-arabinopyranoside] ; wanted: its Relative initial rate of hydrolysis (percentage of that obtained with pNPαAF)
Resp: 3.4

* * *

Tested on: Aureobasidium pullulans Y-21792
ASSAY_METHOD_TEXT: Effect of carbon source on growth and α-L-arabinofuranosidase production in shake flasks
Format: cell-based
PARTICULARS: carbon source 1% w/v, 28° C., maximum in time course
Field: L-arabinosidase (mU/ml culture) Supernatant. Provide a value for each of the compounds that follow.
I only need the number, in mU/ml culture, no unit after it.

Req: # input compound: O=C[C@H](O)[C@@H](O)[C@@H](O)CO [L-arabinose] ; wanted: its L-arabinosidase (mU/ml culture) Supernatant
Resp: 199

Req: # input compound: OC[C@H](O)C(O)[C@@H](O)CO [L-arabitol] ; wanted: its L-arabinosidase (mU/ml culture) Supernatant
Resp: 95

Req: # input compound: OC[C@@H](O)[C@H](O)[C@@H](O)CO [xylitol] ; wanted: its L-arabinosidase (mU/ml culture) Supernatant
Resp: 47

Req: # input compound: O=C[C@H](O)[C@@H](O)[C@H](O)CO [Xylose] ; wanted: its L-arabinosidase (mU/ml culture) Supernatant
Resp: 88
